System: E. coli RNase P RNA, M1 RNA
Experiment: Inhibition of bacterial RNase P activity, IC50 determination (cleavage of pATSerUG by M1 RNA)
Format: biochemical
Conditions: NI = No inhibition
Parameter Measured: log10 IC50 (log10 of the value in µM)

INSERT INTO assay_data (compound, parameter_measured, measured) VALUES
  ('CN(C)C1CCN(c2ccc3c(c2)Sc2cc(C(F)(F)F)cc(NC4CCN(CCN)CC4)c2N3)CC1.Cl.Cl [compound 295, hydrochloride]', 'log10 IC50', 1.32),
  ('CC1CC(C)N1c1ccc2c(c1)Sc1cc(C(F)(F)F)cc(NC3CCN(CCN)CC3)c1N2.Cl (centres unmarked) [compound 337, hydrochloride]', 'log10 IC50', 1.41),
  ('NC1CCCC(C(=O)Nc2cc(C(F)(F)F)cc3nc4ccccc4nc23)C1 (centres unmarked)', 'log10 IC50', 2.41),
  ('CN1c2ccccc2Sc2cc(C(F)(F)F)cc(NC3CCN(CCN)CC3)c21', 'log10 IC50', 1.83),
  ('Cl.Cl.NCCN1CCC(Nc2cc(C(F)(F)F)cc3c2Nc2ccc(N4CCCC4)cc2S3)CC1 [compound 284, hydrochloride]', 'log10 IC50', -0.05),
  ('Cl.NC1CCCC(CNc2cc(C(F)(F)F)cc3c2Nc2ccc(N4CCCC4)cc2S3)C1 (centres unmarked)', 'log10 IC50', 0.28),
  ('CCN(CC)c1ccc2c(c1)Sc1cc(C(F)(F)F)cc(NC3CCN(CCN)CC3)c1N2.Cl.Cl.Cl [compound 306, hydrochloride]', 'log10 IC50', 1.70),
  ('N#Cc1ccc2c(c1)Sc1cc(C(F)(F)F)cc(NC3CCN(CCN)CC3)c1N2', 'log10 IC50', 1.00),
  ('N[C@H]1CCC[C@H](CNc2cc(C(F)(F)F)cc3c2Nc2ccccc2S3)C1.O=C(O)C(F)(F)F [compound 187, trifluoroacetate]', 'log10 IC50', 1.72);

###

System: Escherichia coli (ATCC25922)
Test: MIC, broth microdilution (CLSI), Escherichia coli ATCC25922
Conditions: ATCC25922, read-out: E. coli MIC, Table 15, NI = No inhibition
Recorded MIC for the following compounds
Parameter Measured: MIC

INSERT INTO results (compound, parameter_measured, measured) VALUES
  ('CN(C)CCCN1c2ccccc2Sc2cc(-c3cc4ccccc4[nH]3)ccc21', 'MIC', '> 100 mg/L'),
  ('COc1cc(-c2ccc3c(c2)Sc2ccccc2N3CCCN(C)C)ccn1', 'MIC', '> 100 mg/L'),
  ('CN(C)CCCN1c2ccccc2Sc2cc(-c3cc4cc(C#N)ccc4[nH]3)ccc21.O=C(O)C(F)(F)F', 'MIC', '> 100 mg/L'),
  ('NCC(O)CNC(=O)c1cc2c(c([N+](=O)[O-])c1)Nc1ccccc1S2 (stereo not shown)', 'MIC', '> 100 mg/L');

###

Measured MIC, listed per entry for reference.
Test system: K. pneumoniae ATCC 43816
Parameter Measured: MIC

INSERT INTO results (compound, parameter_measured, measured) VALUES
  ('CC(C)NCCCN1c2ccccc2Sc2cc(-c3cc4ccccc4[nH]3)ccc21 [compound 197]', 'MIC', '> 128 µg/mL'),
  ('CN(C)CCCN1c2ccccc2Sc2cc(-c3cc4ccccc4[nH]3)ccc21 [compound 111]', 'MIC', '> 128 µg/mL'),
  ('O=C(/C=C/c1ccc(F)cc1)Nc1cc(C(F)(F)F)cc2c1Nc1ccccc1S2 [compound 92]', 'MIC', '> 128 µg/mL');

###

Measured pIC50 of individual entries
Test system: E. coli RNase P RNA, M1 RNA
Experiment: Inhibition of bacterial RNase P activity, IC50 determination (cleavage of pATSerUG by M1 RNA)
Assay type: biochemical
Conditions: NI = No inhibition
pIC50: −log10 of the molar value.
Parameter Measured: pIC50

INSERT INTO assay_data (compound, measured) VALUES
  ('O=C(Nc1cc(C(F)(F)F)cc2c1Nc1ccccc1S2)C1CCCNC1 (centres unmarked)', '< 4.00'),
  ('NCCC(=O)Nc1cc(C(F)(F)F)cc2c1Nc1ccccc1S2', '< 4.00'),
  ('CC(N)CC(=O)Nc1cc(C(F)(F)F)cc2c1N(CCCN(C)C)c1ccccc1S2 (centres unmarked)', '< 4.00'),
  ('NC1CCCC(C(=O)Nc2cc(C(F)(F)F)cc3c2Nc2ccccc2O3)C1 (centres unmarked)', '< 4.00'),
  ('NCCN1CCCC(Nc2cc(C(F)(F)F)cc3c2Nc2ccccc2S3)CC1 (centres unmarked)', '< 4.00'),
  ('CN(C)CCCN1c2ccc(-c3cc4ccccc4[nH]3)cc2Sc2cccnc21', '4.49 to 4.62'),
  ('NC[C@H]1CCC[C@H](CNc2cc(C(F)(F)F)cc3c2Nc2ccccc2S3)C1', '< 4.00'),
  ('O=C(Nc1cc(C(F)(F)F)cc2c1Nc1ccccc1S2)[C@H]1CCCNC1', '< 4.00');
